Values compiled from ChEMBL document CHEMBL1938279.

Method Notes: Inhibition of NF-kappaB activation in human TNFalpha-stimulated A549 cells preincubated for 2 hrs before TNFalpha challenge measured after 7 hrs post stimulation by luciferase reporter gene assay
Format: cell-based
log10 IC50 values by entry
log10 IC50, µM

Here's what some known entries look like.
Compound	Result
COc1ccc2cc1Oc1cc(ccc1OC)CCC(=O)CCCC2	1.16
C=C1C(=O)O[C@@H]2C3O[C@]3(C)CC/C=C(\C)CC[C@@H]12 (stereo not given in full)	0.67
COc1cc2ccc1Oc1cc(ccc1OC)CCC(O)CCCC2 (stereo not given)	1.56
COc1cc(/C=C/C(=O)CC(=O)/C=C/c2ccc(O)c(OC)c2)ccc1O	1.31

Proceed to the following item.
Consider the compound shown here: `COc1ccc2c(c1OC)C(=O)O[C@@H]2[C@H]1c2c(cc3c(c2OC)OCO3)CCN1C` What is its recorded log10 IC50?
1.81
